Provide the reported growth of each item.
Test system: TK-10 renal
assay.remarks: NCI-60 one-dose screen, 48 h (100 = growth as untreated, 0 = no growth, -100 = all killed)
condition.context: 10 µM unless noted
About 83,000 compounds went through this panel and 20% of them were active in at least one assay; those are over-represented in the sample as a whole.
Give bare numbers, in %.

CCCCNC(=O)Oc1ccc(/C(=C(\C)c2ccc(Cl)cc2)c2ccc(OCCN3CCCCC3)cc2)cc1 ... 87
C[C@H](C(=O)Nc1ccc(S(N)(=O)=O)cc1)S(=O)(=O)c1ccccc1 ... 95.4
CN1CCN(c2ccc(-c3cc4c(Nc5ccc(F)c(Cl)c5)ncnn4c3)cn2)CC1 ... 76.7

Okay, here is my list. What is growth for each of these?
1. CC(=O)CC(c1cccs1)c1c(-c2ccccc2)[nH]c2ccccc12 (stereo not given)
2. COc1nc2ccccc2cc1-c1nc2c(cnn2-c2ccccc2)c(=O)[nH]1

1: 134; 2: 72
